Please go through the items and note down their log10(Kd).
SYSTEM_TESTED: T1, recombinant human IL-23R/Fc chimera (R&D Systems) (human, UniProt Q5VWK5 24-355)
T1 construct: Bought; also called rhIL23RFc
T1 sequence (looked up): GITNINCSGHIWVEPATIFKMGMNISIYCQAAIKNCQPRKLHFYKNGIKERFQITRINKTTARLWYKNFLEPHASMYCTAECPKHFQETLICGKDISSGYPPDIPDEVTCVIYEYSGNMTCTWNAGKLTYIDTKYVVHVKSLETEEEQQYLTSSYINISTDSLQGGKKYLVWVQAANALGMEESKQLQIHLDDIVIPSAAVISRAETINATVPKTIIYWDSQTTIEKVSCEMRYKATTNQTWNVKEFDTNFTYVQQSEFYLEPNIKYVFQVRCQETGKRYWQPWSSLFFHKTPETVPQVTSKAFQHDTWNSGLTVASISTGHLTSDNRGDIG
TEST_DESCRIPTION: SPR
Base-10 log of Kd, unit nM.

q: Value lookup for log10(Kd); key = 105-08-1A8 ATRIMER complex (designed binder) EPPTQKPKKIVNAKKDVVNTKMFEELKSRLDTLAQEVALLKEQQALQTVCLKGTKVHMKCFLAFTQTKTFHEASEDCISRGGTLSTPQTGSENDALYEYLRQSVGNEAEIWLGLNGSPRTNTWVDMTGARIAYKNWETEITAQPDGGFGVFGENCAVLSGAANGKWFDKRCRDQLPYICQFGIV
a: -0.33

q: Value lookup for log10(Kd); key = 001-89.C12E monomeric CTLD (designed binder, C-terminal tag not specified) ALQTVCLKGTKVHMKCFLAFTQTKTFHEASEDCISRGGTLSTPQTGSENDALYEYLRQSVGNEAEIWLGLNWTKRTALWVDMTGARIAYKNWETEITAQPDGGMFGMGENCAVLSGAANGKWFDKRCRDQLPYICQFGIV
a: 2.25

q: Value lookup for log10(Kd); key = 101-54-4B3 ATRIMER complex (designed binder) EPPTQKPKKIVNAKKDVVNTKMFEELKSRLDTLAQEVALLKEQQALQTVCLKGTKVHMKCFLAFTQTKTFHEASEDCISRGGTLSTPQTGSENDALYEYLRQSVGNEAEIWLGLNGSALTNTWVDMTGARIAYKNWELPPPGHPQGGFGVFGENCAVLSGAANGKWFDKRCRDQLPYICQFGIV
a: -0.49

q: Value lookup for log10(Kd); key = 101-54-4B10 ATRIMER complex (designed binder) EPPTQKPKKIVNAKKDVVNTKMFEELKSRLDTLAQEVALLKEQQALQTVCLKGTKVHMKCFLAFTQTKTFHEASEDCISRGGTLSTPQTGSENDALYEYLRQSVGNEAEIWLGLNGSALTNTWVDMTGARIAYKNWERPPLYQPGGGFGYFGENCAVLSGAANGKWFDKRCRDQLPYICQFGIV
a: -0.05

q: Value lookup for log10(Kd); key = 001-69.4G8 ATRIMER complex, mammalian-cell produced (designed binder, not shown: small tags and cut ends, Homotrimer of this chain (ATRIMER complex); produced in HEK293 cells, glycosylation possible., Mammalian-cell produced material; also called 4G8 m; 4G8 TN m) EPPTQKPKKIVNAKKDVVNTKMFEELKSRLDTLAQEVALLKEQQALQTVCLKGTKVHMKCFLAFTQTKTFHEASEDCISRGGTLSTPQTGSENDALYEYLRQSVGNEAEIWLGLNGSRRSGVWVDMTGARIAYKNWETEITAQPDGGFGVFGENCAVLSGAANGKWFDKRCRDQLPYICQFGIV
a: 0.68

q: Value lookup for log10(Kd); key = 101-51-1A10 ATRIMER complex (designed binder, Forms a homotrimer through the tetranectin coiled coil; one protomer is given., not shown: C-terminal tag: His/Myc (pANA4) or HA-StrepII (pANA10)) EPPTQKPKKIVNAKKDVVNTKMFEELKSRLDTLAQEVALLKEQQALQTVCLKGTKVHMKCFLAFTQTKTFHEASEDCISRGGTLSTPQTGSENDALYEYLRQSVGNEAEIWLGLNGSALTNTWVDMTGARIAYKNWEHPLPPQPSGGFGYFGENCAVLSGAANGKWFDKRCRDQLPYICQFGIV
a: 0.31
